# System: P388 leukemia ip, CD2F1 mice, survival T/C
# run-description: NCI In Vivo Anticancer Drug Screen. Data for tumor model P388 Leukemia (intraperitoneal) in CD2F1 (CDF1) mice
# test-context: endpoint: median survival time; dose: 12.5 mg/kg/injection; schedule: Q01DX005 (ip); vehicle: saline with Tween-80; higher = longer survival
Toxic doses and inconclusive results are not listed.
measure-name: T/C

Cc1ccc2[nH]c3nc4cc(C)c(C)cc4nc3c2c1    93 % of control
CSc1nc(COC(=O)NC(C)C)c(COC(=O)NC(C)C)n1Cc1ccccc1    98 % of control
CCC(/C=C/c1ccccc1)=N\NC(=O)c1ccc(C)cc1    92 % of control
COc1c2c(c(Cc3c4c(c(OC)c5c3OCO5)OC(C)C4)c3c1OCO3)CC(C)O2 (stereo not drawn)    96 % of control
CC(C)(C)C(S)CS (stereo not drawn)    104 % of control
COc1ccc2[nH]c(=O)c(C#N)c(C)c2c1    95 % of control
S=c1[nH]c(=S)c2[nH]c(=S)[nH]c2[nH]1    92 % of control
CCCCN1C=C(C)N(CCCC)CC1    109 % of control

====

# Tested on: P388 leukemia ip, CD2F1 mice, survival T/C
# run-description: NCI In Vivo Anticancer Drug Screen. Data for tumor model P388 Leukemia (intraperitoneal) in CD2F1 (CDF1) mice
# test-context: endpoint: median survival time; dose: 100.0 mg/kg/injection; schedule: Q01DX009 (ip); vehicle: saline with Tween-80
Inconclusive results and toxic doses are left out. Rule for the calls: active = survival T/C of 150% or more; inactive = T/C below 125% in these data.
Outcome codes: active, inactive

CCn1c2nc(=O)n(C)c(=O)c-2cc2ccccc21    inactive
CC(C)(C)CC(C)(C)c1ccc(OCc2cccc(Cl)c2)cc1    inactive
COC1/C=C/OC2(C)Oc3c(C)c(O)c4c(O)c(c(/C=N/N5CC(C)(C)N(Cc6ccccc6)CC5(C)C)c(O)c4c3C2=O)NC(=O)C(C)=C/C=C/C(C)C(O)C(C)C(O)C(C)C(OC(C)=O)C1C (configuration not stated)    inactive
NC(=O)NC(c1ccccc1)C(O)(c1ccccc1)c1ccccc1 (configuration not stated)    inactive
CCn1c2c(c3ccccc31)CCSC2(C)CCN(C)C (configuration not stated)    inactive
CC(=O)Nc1ccc(C(/C=N\NC(N)=S)=N/NC(N)=S)cc1    inactive
CCOC1N(c2ccc(Cl)cc2)CN(C)CC1(C)C (configuration not stated)    inactive
N=C(N)N    inactive
CCN(CC)CCOC(=O)CC1CCCCC1    inactive
O=Nc1cc(S(=O)(=O)O)c2ccccc2c1O    inactive
C[P+](CCOC(=O)NC(Cc1ccccc1)C(=O)O)(c1ccccc1)c1ccccc1 (configuration not stated)    inactive
[S]=[W]=[S]    inactive
O=[N+]([O-])c1ccc2c(N=Nc3ccc4ccccc4c3O)c(O)cc(S(=O)(=O)O)c2c1    inactive
COc1ccc(C=Nc2ccccc2)cc1    inactive
O=[N+]([O-])c1ccc(C=Nc2ccccc2)cc1    inactive
CN1CCC(=C2c3ccccc3C(=O)C(=O)c3sccc32)CC1    inactive
CC(F)C(C)C(N)C(=O)O (configuration not stated)    inactive
COc1n[n+]([O-])c(Cl)cc1[N+](=O)[O-]    inactive
CCN(CC)CCOC(=O)c1ccc(N=C/C=C/C(C#N)=C/NOC)cc1    inactive
CCCCOn1nnc2ccccc21    inactive
O=c1[nH]cnc2n[nH]nc12    inactive
CON1C(=O)c2ccccc2C1=O    inactive
O=c1c(Cl)c2cc3c(cc2c2ccccc12)nc1ccccc1n3C1CCCCC1    inactive
O=C(CNC(=O)NCc1ccco1)N/N=C/c1ccccc1O    inactive
Cc1c2c(cn1C)NC(=O)CN=C2c1ccccc1    inactive
O=C1Nc2ccccc2C1=O    inactive
C=C/C=C/NC(=O)OCc1ccccc1    inactive
COc1ccc(CCNC(=O)c2cc3ccccc3oc2=O)cc1OC    inactive
N#CC(C(=O)N1CCCC1)=C(S)S    inactive
O=C1OC2CS(=O)CC2O1 (configuration not stated)    inactive
CCCCCCOCN(COCCCCCC)c1ccc(Cl)cc1    inactive
C/C=C/C(=O)Nc1cccc(OC(=O)NC(C)(C)C)c1    inactive
CC(=O)OCC(OC(C)=O)C(OC(C)=O)C(OC(C)=O)C(C#N)OC(C)=O (configuration not stated)    inactive
CN(CCC#N)c1ccc(/C=C(\C#N)C(N)=O)cc1    inactive
CCCc1c(Cl)nc(Cl)nc1Cl    inactive
O=C1CC2(C(=O)O1)C1C(=O)OC(=O)C1C1c3ccccc3C=NN12 (configuration not stated)    inactive
Cc1c2cc[n+]([O-])cc2c(C)c2c1oc1ccccc12    active
O=C(/C=C/C(=O)OCC(Cl)(Cl)Cl)OCC(Cl)(Cl)Cl    inactive
Cc1nnc(NS(=O)(=O)c2ccc(N=Nc3cc(N=Nc4ccc(S(=O)(=O)Nc5nnc(C)s5)cc4)c4c(NC(=O)C(Cl)Cl)cccc4c3OC(=O)C(Cl)Cl)cc2)s1 (tested in a mixture with another compound)    inactive
CSCc1ccc(Cl)cc1N (tested in a mixture with another compound)    inactive
CCCCCC(CN1CCCCC1)C(=O)/C=C/c1ccccc1 (configuration not stated)    inactive
O=C(OC(c1ccccc1)(C(F)(F)F)C(F)(F)F)c1ccccc1Sc1ccccc1    inactive
Nc1nc(N)c2cc(CNc3ccc(C(=O)NC(CC(=O)O)CC(=O)O)cc3)ccc2n1    inactive
CC1(C)CCCc2c(-c3ccccc3)cc3c4ccccc4cc[n+]3c21    inactive
COc1ccc(N=NC2C(=O)N(C(=O)c3ccncc3)N=C2C)cc1 (configuration not stated)    inactive
Cc1noc(/N=N/N(C)c2ccccc2)c1C    inactive
COc1cc2ccc(CC(=S)N3CCOCC3)cc2cc1OC    inactive
